What inhibition was measured for each of the following?
test: kanamycin survival loss of SKKanGAS strain – BacTiter-Glo luminescence, streptokinase expression inhibitor project, primary screen (AID 1662);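 note: strain carries kanamycin resistance gene driven by streptokinase promoter and grows in 40 µg/ml kanamycin; loss of luminescence reflects streptokinase promoter inhibition or plain growth inhibition; 0% = median of DMSO wells and 100% = positive control at its reference dose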; details: S. pyogenes SKKanGAS, kanamycin growth, 6 h, at 7.5 µM, hits give high values
The whole screen tested about 300,000 compounds, of which about 4,000 (1.3%) were called active. This is one part of a sample in which actives are shown more often than they occur.
The response must be a number in % with no trailing unit.

Prompt: Dear colleague, I am looking for the recorded inhibition of the following compound: CCOC(=O)C1CCN(C(=O)COC(=O)C2CCN(S(=O)(=O)c3ccc4c(c3)OCCO4)CC2)CC1
Completion: 19.6

Prompt: I would be grateful if you could share the reported inhibition for O=C(NNC(=S)NC(=O)c1cn(-c2ccccc2)nc1-c1ccccc1)c1ccncc1 .
Completion: 99.7

Prompt: What does the data say about its inhibition? Entry: O=C1NC(=Nc2ccc(Cl)cc2)SC1Cc1cccc(Cl)c1Cl (configuration not stated)
Completion: 61.1

Prompt: // returns reported inhibition for input Cc1ccc(S(=O)(=O)c2c(COC(=O)c3cccc(Cl)c3)c(-c3ccccc3)nn2C)cc1
Completion: -28.6

Prompt: Data request, read-out inhibition, for CC(=O)N(CN1C(=O)C2C3C=CC(C3)C2C1=O)c1cccc(Cl)c1 (configuration not stated)
Completion: -0.219

Prompt: Tell me the measured inhibition of COc1cc2ccccc2cc1C(=O)Nc1ccncc1 , please.
Completion: -4.59

Prompt: Look at this compound and give its reported inhibition. CC1(C)SC2C(NC(=O)COc3ccccc3)C(=O)N2C1C(=O)O (configuration not stated)
Completion: 102

Prompt: I would be grateful if you could share the reported inhibition for Cn1nc(-c2ccccc2)c(CO)c1Sc1ccccc1 .
Completion: -5.22

Prompt: Consider the compound shown here: COc1ccccc1CCC(=O)OCC(=O)N1CCN(S(=O)(=O)c2ccc(C)cc2C)CC1 What is its recorded inhibition?
Completion: -9.85

Prompt: Tell me the measured inhibition of CC(C)=N/N=C1/NC(=O)C(Cc2ccccc2)S1 (configuration not stated) , please.
Completion: 0.633

Prompt: Consider the compound shown here: CC(C)N1CCC(=NNc2ccc([N+](=O)[O-])cc2S(=O)(=O)N2CCOCC2)CC1 What is its recorded inhibition?
Completion: 17.1

Prompt: Can you look up the measured inhibition of CCOC(=O)C1=C(c2ccc(OC)cc2)C(=O)c2ccccc2C1=O for me?
Completion: 54.9

Prompt: Looking for the measured inhibition of NC(=O)C1CC(=O)N(c2ccc(OCC(=O)NCc3ccccc3)cc2)C1 (configuration not stated) , can you help?
Completion: 1.49

Prompt: Could you share which inhibition value was measured for Cn1nc(-c2ccccc2)c(CSc2cccc(Cl)c2)c1Cl ?
Completion: 61.6

Prompt: Consider the compound C/C(=N\NC(=O)c1ccoc1C)c1ccccc1O and give its measured inhibition.
Completion: 4.94

Prompt: # inhibition lookup, item COc1cc(NC(=O)c2cccs2)ccc1NC(=O)c1ccccc1Cl
Completion: 3.93

Prompt: Fill blank: measured inhibition of the compound COc1cc2ccccc2cc1C(=O)Nc1ccc(NC(=O)c2cccs2)cc1 is ____.
Completion: 64.7

Prompt: inhibition lookup needed for CC(c1cccnc1)N(CCN(C)C)C(=O)Nc1ccc(Cl)c(Cl)c1 (configuration not stated) , thanks.
Completion: -0.312

Prompt: Please report the recorded inhibition for Cc1onc(-c2ccccc2)c1C(=O)NNC(=S)NC(=O)c1ccc(F)cc1 .
Completion: 7.91

Prompt: Item under review: Cc1cccc(OCC(=O)NC2CC(C)(C)NC(C)(C)C2)c1 . Reported inhibition?
Completion: 1.54

Prompt: I would be grateful if you could share the reported inhibition for CC1(C)c2[nH]c3ccccc3c2C[C@H]2C(=O)N(N)CC(=O)N21 .
Completion: 1.39

Prompt: Any idea what its inhibition is? The compound is O=C(Nc1cn(-c2ccccc2)nc1-c1ccccc1)c1ccccc1
Completion: -2.24
